B1: Homeobox protein cut-like 2, residues 895 to 963; numbered along this chain, O14529 (parent)
chain: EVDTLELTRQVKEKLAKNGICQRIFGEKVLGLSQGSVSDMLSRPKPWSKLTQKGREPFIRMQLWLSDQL

variants of: B1; assay: abundance fitness (aPCA) (normalised: wild type 0, dead -1); higher = more abundant; growth selection in yeast, the domain comes from the species named; settings: Homo sapiens
# abundance fitness per entry
Lab note: record just the number, no unit beside it.

Known results for variants:
[
  {
    "mutation.name": "W64R",
    "observed.measurement": -0.945
  },
  {
    "mutation.name": "R9N",
    "observed.measurement": -0.068
  },
  {
    "mutation.name": "I20A",
    "observed.measurement": -0.535
  },
  {
    "mutation.name": "T4F",
    "observed.measurement": -0.006
  },
  {
    "mutation.name": "L63W",
    "observed.measurement": -0.271
  }
]

Prompt line: Item K45V has what recorded abundance fitness?
Response line: -0.083

Prompt line: Item P46R has what recorded abundance fitness?
Response line: -0.057

Prompt line: Item T4A has what recorded abundance fitness?
Response line: -0.334

Prompt line: Item T51C has what recorded abundance fitness?
Response line: -0.375

Prompt line: Item L69R has what recorded abundance fitness?
Response line: -0.08

Prompt line: Item S38T has what recorded abundance fitness?
Response line: 0.006

Prompt line: Item P57S has what recorded abundance fitness?
Response line: -0.034

Prompt line: Item S33C has what recorded abundance fitness?
Response line: -0.035

Prompt line: Item L15K has what recorded abundance fitness?
Response line: 0.029

Prompt line: Item K53A has what recorded abundance fitness?
Response line: -0.014
